system: DLD1 NRF2-WT; assay: drug sensitivity score (DSS) viability (DSS score); higher = more sensitive; extreme values may be limits of the assay; details: 72 h; CellTiter-Glo viability
Note to self: class = bucket of drug sensitivity score, per range 1 = under 2, range 2 = from 2 up to 10, range 3 = 10 and over

CN(C)C[C@@H]1CCn2cc(c3ccccc32)C2=C(C(=O)NC2=O)c2cn(c3ccccc23)CCO1 : range 2

Q: Bin? NC1(c2ccc(-c3nc4ccn5c(=O)[nH]nc5c4cc3-c3ccccc3)cc2)CCC1
Result: range 2

----------
Measured TC50 cytotoxicity accompanies every entry in the list below.
tested on: DLD1 NRF2-GOF; test: TC50 cytotoxicity; higher = less toxic; conditions: 72 h; CellTox Green cytotoxicity

A selection of reference data follows.
CC/C(=C(\c1ccc(O)cc1)c1ccc(OCCN(C)C)cc1)c1ccccc1 [4-hydroxytamoxifen] : > 10 µM
CNC(=O)c1ccccc1Sc1ccc2c(/C=C/c3ccccn3)n[nH]c2c1 [Axitinib] : > 10 µM

Q: What reported TC50 cytotoxicity corresponds to COc1ccc(COc2cc3oc(=O)c4cc(C(C)O)ccc4c3cc2OC)cc1 (centres undefined) [Palomid-529] on DLD1 NRF2-GOF?
Result: > 10 µM

Q: What TC50 cytotoxicity appears in the records for this compound with DLD1 NRF2-GOF? C=CC(=O)N1CCC[C@@H](n2nc(-c3ccc(Oc4ccccc4)cc3)c3c(N)ncnc32)C1 [Ibrutinib]
Result: > 1 µM
